Reference source for all entries: patent US20260209316A1

Molecular target: T1, full-length Sudan GP (GPFL) (Sudan virus (SUDV), UniProt Q7T9D9 33-650)
T1 construct: also called Sudan GPFL; GP(S)FL
T1 sequence: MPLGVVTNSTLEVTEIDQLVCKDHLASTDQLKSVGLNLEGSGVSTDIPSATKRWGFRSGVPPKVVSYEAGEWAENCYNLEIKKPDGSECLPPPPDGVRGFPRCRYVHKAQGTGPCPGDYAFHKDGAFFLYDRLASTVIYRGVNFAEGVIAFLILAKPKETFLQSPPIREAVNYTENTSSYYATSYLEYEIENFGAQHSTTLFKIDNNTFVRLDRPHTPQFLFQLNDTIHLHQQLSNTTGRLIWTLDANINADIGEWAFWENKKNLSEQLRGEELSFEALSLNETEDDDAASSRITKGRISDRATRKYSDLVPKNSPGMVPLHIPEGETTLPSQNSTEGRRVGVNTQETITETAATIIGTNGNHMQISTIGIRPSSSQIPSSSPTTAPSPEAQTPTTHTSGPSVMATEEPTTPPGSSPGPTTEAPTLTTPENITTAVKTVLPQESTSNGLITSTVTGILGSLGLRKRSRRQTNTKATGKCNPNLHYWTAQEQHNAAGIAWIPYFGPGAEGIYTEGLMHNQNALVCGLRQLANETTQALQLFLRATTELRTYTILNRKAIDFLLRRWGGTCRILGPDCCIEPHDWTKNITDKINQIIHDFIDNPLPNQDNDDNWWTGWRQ
Test: BLI, Fab, pH 5.3

- Binder: "Fab generated from 335S (Fab, V domains shown, also called 335S Fab) VH: EVQLVESGGGVVQPGRSLRLSCAASGFSFSNYAMHWVRQAPGKGLEWVAVTWYDGSSKYHADSVKGRFTISRDNSKNTLYLQMNSLRAEDTAVYYCARWGMGIVASPGNVLNYYYFMDVWGQGTTVIVSS VL: SYELTQPPSVSVSPGQTARITCSGNPLPKKHTYWYQQKPGQAPVLMIYKDSERPSRIPERFSGSSSGTTVTLTISGVQAEDEADYYCQSADSTGIVVFGGGTKLTVL"
  Unit abbrev: "nM"
  Kd: 12.6
- Binder: "Fab generated from 285S (Fab, V domains shown) VH: QVQLVQSGAEVKKPGSSVKVSCKASGGTFSTYAITWVRQAPGQGLEWMGRIIPILRVANYAQKFQGRVTITADSSTSTAYMELSSLRSEDTAVYYCANLLAYCGGDCRSDYWGQGTLVTVSS VL: EIVLTQSPGTLSLSPGERATLSCRASQSVKNSYLAWYHQKPGQAPRLLIYGASSRATGIPDRFSGSGSGTDFTLTISRLEPEDFAVYYCQQYGSSLWTFGQGTKVDVK"
  Unit abbrev: "nM"
  Kd: 18.2
- Binder: "Fab generated from 315S (Fab, V domains shown, also called 315S Fab) VH: EVQLVESGGGVVQPGRSLRLSCAASGFTFKTYTMHWVRQAPGKGLEWVAVITDDGVNKKYADSVKGRFTISRDNSKNTLYLQMNSLRLEDTAVYYCARSVVVLAAYPLDYWGQGTMVTVSS VL: DIQMTQSPSSLSASVGDRVTITCRASQTISTYLHWYQQRPGKAPKLLIYAASSLQSGVPSRVSGSGSGTDFTLTITSLQPEDFATYYCLQTYSLPLTFGGGTNVEIK"
  Unit abbrev: "nM"
  Kd: 4.26
